Tested on: HS 578T breast
Experimental Details: NCI tumour cell line growth inhibition, 48 h
# maps each entry to its TGI
Write the answer as a number in µM, unit excluded.

- Compound: "CC(C)(C)C1CCC2c3c([nH]c4ccccc34)C3C(=O)N(c4ccc(C(=O)O)cc4)C(=O)C3C2C1 (centres undefined)"
  Measurement Unit: "µM"
  Quantitative Result: 39
- Compound: "N#C/C(=C\\c1ccc(Cl)cc1)c1nc(-c2cc3ccccc3oc2=O)cs1"
  Measurement Unit: "µM"
  Quantitative Result: 37.7

Now, please, on to the next compound.
Can you share its TGI? I mean this compound: COc1nc(SC)nc2c1C(O)n1c(nc3ccccc31)S2 (centres undefined) 50.7

###

System: SK-MEL-5 melanoma
Experimental Details: NCI tumour cell line growth inhibition, 48 h
Reported Endpoint: TGI

- Molecule: "CCC(=O)Oc1cc(/C=C/C(=O)O[C@H]2C[C@H]3CN4CCc5c([nH]c6cc(OC)ccc56)[C@@H]4C[C@@H]3[C@@H](C(=O)OC)[C@@H]2OC)ccc1OC"
  TGI: "28.5 µM"

Can you share its TGI? I mean this molecule: NC(Cc1ccc(OCc2ccccc2)cn1)C(=O)OCc1ccccc1 (stereo not drawn) > 100 µM

Same lookup for "CCCCCc1c(Cl)nc(Cl)nc1Cl" , please. 18.1 µM

Same lookup for "COc1ccc(/C=C/C(=O)Oc2ccc(/C=C3\CCCCC3=O)cc2)cc1" , please. > 100 µM

Same lookup for "CN(C)CCCNC(=S)S" , please. > 100 µM

Same lookup for "CCOC(=O)C(C)(C)Oc1ccc(Cl)cc1" , please. 294 µM

Same lookup for COc1ccc(COC(=O)NNC(=O)C2CSC(c3ccccc3)N2C(C)=O)cc1 (stereo not drawn) , please. > 100 µM

Same lookup for "CC(=O)N(C)C=C1C(=O)N(C)C(=O)N(C)C1=O" , please. > 100 µM

Same lookup for "CN(C)c1ccc(/C=C2\N=C(N/N=C/c3ccc(N(C)C)cc3)NC2=O)cc1" , please. > 100 µM

Same lookup for "COc1ccc(-c2nc3cc(F)ccc3s2)cc1O" , please. 59 µM

Same lookup for "O=C1C=Cc2c(-c3ccccc3)oc3cccc1c23" , please. > 100 µM

Same lookup for "CO/C(N)=C(\C#N)N=Cc1ccccc1" , please. > 100 µM

Same lookup for CC#C[C@@]1(O)CCCCC1O (stereo partly drawn) , please. > 100 µM

Same lookup for "COc1cc(C(=O)/C=C/c2cc(-c3cc(OC)c(OC)c(OC)c3)n[nH]2)cc(OC)c1OC" , please. 2.94 µM

Same lookup for "Cn1cc(-c2ccc(-c3cn(C)c4ncccc34)[nH]2)c2cccnc21" , please. 3.47 µM

Same lookup for "NCc1ccc(O)c(O)c1" , please. > 100 µM

###

System: KM12 colon
Experimental Details: NCI tumour cell line growth inhibition, 48 h
Reported Endpoint: TGI (µM)
Write the answer as a number in µM, unit excluded.

- Molecule: "Cn1cc(-c2ccc(-c3cn(C)c4ncccc34)[nH]2)c2cccnc21"
  Measurement Unit: "µM"
  TGI: 4.23

API: value(readout= TGI, system= KM12 colon, query= CCOC1c2cc(OC)c(OC)cc2-c2ccc3ccccc3c2N1C (stereo not given) ) 21.1

Same lookup for "N#Cc1c(C#N)c(SSc2c(C#N)c(C#N)c(N)n2-c2ccc(F)cc2)n(-c2ccc(F)cc2)c1N" , please. 44.3

Same lookup for c1ccc2c(c1)Sc1ccccc1N2CC1CN2CCC1CC2 (stereo not given) , please. 17.5

###

Tested on: 786-0 renal
Experimental Details: NCI tumour cell line growth inhibition, 48 h
Reported Endpoint: GI50

Below are worked cases with known answers.
- Compound: "N#Cc1ccccc1C#C/C=C\\C#Cc1cccs1"
  Result: "29.4 µM"
- Compound: "CO/N=C(\\COc1ccc2c(=O)cc(-c3ccccc3)oc2c1)c1ccc(F)cc1"
  Result: "20.7 µM"

Can you share its GI50? I mean this compound: "O=c1c2c3c(sc2n2c(CCl)nnc2n1Cc1ccccc1)CCCC3" 2.01 µM

Same lookup for "CCCCCCC/C(=N\N=C(N)N)c1ccc(O)cc1" , please. 2.16 µM

Same lookup for C[C@@H]1CCC2[C@@H](C)[C@@H](OC3CCC(O)CC3)OC3O[C@@]4(C)CCC1[C@]32OO4 (stereo not given in full) , please. > 100 µM

Same lookup for Nc1ncc2ccc3c(ccn3C3CC(O)C(CO)O3)c2n1 (stereo not given) , please. > 100 µM

Same lookup for "COC(=O)N1c2ccc3c(nc(Cc4ccccc4)n3[C@H]3CCC[C@H](C(=O)O)C3)c2CC[C@@H]1C" , please. 5.67 µM

Same lookup for "CC1=C2[C@H]3OC(=O)[C@@H](C)[C@@H]3CC[C@@]2(C)C=CC1=O" , please. > 100 µM

Same lookup for "c1cc2ccc3cc2cc1CNCCN1CCNCc2ccc4ccc(cc4c2)CNCCN(CCNC3)CCNCc2ccc3ccc(cc3c2)CNCC1" , please. 10.4 µM

Same lookup for "Cc1c(-c2ccc(O)c(O)c2)oc(=O)c2c(O)cc(O)cc12" , please. 14.4 µM

###

System: MDA-MB-231 breast
Experimental Details: NCI tumour cell line growth inhibition, 48 h
Reported Endpoint: TGI

Below are worked cases with known answers.
- Compound: "O=C1CS/C(=N/S(=O)(=O)c2ccc(N3N=C4c5ccccc5CC4C3c3cccs3)cc2)N(c2ccccc2)C1 (configuration not stated)"
  TGI: "84.8 µM"
- Compound: "CC(C)=CCc1ccc2[nH]c3c(c2c1)C(=O)C(=O)C(C)=C3C(O)C(C)O (configuration not stated)"
  TGI: "15.8 µM"
- Compound: "COC(=O)N1c2ccc3c(nc(Cc4ccccc4)n3[C@H]3CCC[C@H](C(=O)O)C3)c2CC[C@@H]1C"
  TGI: "> 100 µM"
- Compound: "Oc1cccc2cc(Cl)cnc12"
  TGI: "> 100 µM"
- Compound: "O=C1/C(=C/c2ccc(Cl)cc2)CCC/C1=C\\c1ccc(O)c(CN2CCCCC2)c1"
  TGI: "63.6 µM"
- Compound: "CN(C)c1ccc(/C=C2\\N=C(N/N=C/c3ccc(N(C)C)cc3)NC2=O)cc1"
  TGI: "> 100 µM"
- Compound: "Cc1ccc(N=Nc2c(O)c(S(=O)(=O)O)cc3cc(S(=O)(=O)O)ccc23)c(C)c1"
  TGI: "> 100 µM"
- Compound: "c1ccc(C[n+]2ccc3c(c2)CCCC3)cc1"
  TGI: "> 100 µM"

API: value(readout= TGI, system= MDA-MB-231 breast, query= "COc1ccc2nc(NC(=O)COc3cc(/C=C\c4cc(OC)c(OC)c(OC)c4)ccc3OC)sc2c1" ) > 100 µM

Same lookup for "O=C(Cc1nc2cccnc2nc1/C=C(\O)c1ccccc1)c1ccccc1" , please. > 100 µM

Same lookup for Cc1cc(=O)[nH]c(NN2C(Cl)C(=O)C2c2ccc(O)cc2)n1 (configuration not stated) , please. 30 µM

Same lookup for C=C[C@@]1(C)CC2(C=C(CO)C(O)O2)Oc2c1c(=O)oc1cccc(C)c21 (some centres not stated) , please. 23.9 µM

Same lookup for "CN(C)CCCNC(=S)S" , please. > 100 µM

Same lookup for "CC(C)(C)c1cc(C(C)(C)C)c2c(c1O)OC(=O)CS2" , please. 52.4 µM

Same lookup for "CO/N=C(\COc1ccc2c(=O)cc(-c3ccccc3)oc2c1)c1ccc(F)cc1" , please. 64 µM

Same lookup for "OC(c1ccc(F)cc1)(c1ccc(F)cc1)C1CC1" , please. > 100 µM

Same lookup for "O=[N+]([O-])c1ccc(-c2nc(/C=N/N3CCCCC3)cs2)o1" , please. > 100 µM

###

Tested on: COLO 205 colon
Experimental Details: NCI tumour cell line growth inhibition, 48 h
# maps each entry to its TGI

Below are worked cases with known answers.
- Compound: "CCN1CC2(COC)C(O)CC(OC)C34C5CC6(O)C(OC)C=C(C5C6OC(=O)c5ccc(OC)c(OC)c5)C(C(OC)C23)C14 (centres undefined)"
  TGI: "> 7.5 µM"
- Compound: "COc1cc2c(cc1OCCCCOc1cc3nc(C)nc(Cl)c3cc1OC)N=C[C@@H]1CCCN1C2=O"
  TGI: "45.4 µM"
- Compound: "CCN(CC)CCCNc1ccc2ncn3c4ccc(O)cc4c(=O)c1c23"
  TGI: "19.4 µM"
- Compound: "CC#C[C@@]1(O)CCCCC1O (some centres undefined)"
  TGI: "> 100 µM"
- Compound: "c1ccc(C[n+]2ccc3c(c2)CCCC3)cc1"
  TGI: "> 100 µM"

Can you share its TGI? I mean this compound: "COc1ccc(OC)c(Nc2nc3ccccc3c3c2-c2ccc(OC)cc2C3=O)c1" > 100 µM

Same lookup for O=C1CS/C(=N/S(=O)(=O)c2ccc(N3N=C4c5ccccc5CC4C3c3cccs3)cc2)N(c2ccccc2)C1 (centres undefined) , please. > 100 µM

Same lookup for "C=CCCC(CCC=C)(C(=O)O)C(=O)O" , please. > 100 µM

Same lookup for C=C[C@@]1(C)CC2(C=C(CO)C(O)O2)Oc2c1c(=O)oc1cccc(C)c21 (some centres undefined) , please. 26.9 µM

Where do these numbers come from? They come from PubChem BioAssay (NCI).
